Experiment Description: Compound was tested for bioavailability in squirrel monkey
Assay type: ADME, organism-based, Saimiri sciureus
Test Parameters: in vivo

| Compound | bioavailability |
| --- | --- |
| O=C(O)CSC(CCCc1ccc(Cl)cc1)c1ccc(OCc2ccc3ccccc3n2)cc1 (stereo unspecified) | 93% |
